# pIC50 values compiled below
- SYSTEM_UNDER_TEST: SGLT1 (Homo sapiens, UniProt P13866)
- Sequence (P13866 1-664): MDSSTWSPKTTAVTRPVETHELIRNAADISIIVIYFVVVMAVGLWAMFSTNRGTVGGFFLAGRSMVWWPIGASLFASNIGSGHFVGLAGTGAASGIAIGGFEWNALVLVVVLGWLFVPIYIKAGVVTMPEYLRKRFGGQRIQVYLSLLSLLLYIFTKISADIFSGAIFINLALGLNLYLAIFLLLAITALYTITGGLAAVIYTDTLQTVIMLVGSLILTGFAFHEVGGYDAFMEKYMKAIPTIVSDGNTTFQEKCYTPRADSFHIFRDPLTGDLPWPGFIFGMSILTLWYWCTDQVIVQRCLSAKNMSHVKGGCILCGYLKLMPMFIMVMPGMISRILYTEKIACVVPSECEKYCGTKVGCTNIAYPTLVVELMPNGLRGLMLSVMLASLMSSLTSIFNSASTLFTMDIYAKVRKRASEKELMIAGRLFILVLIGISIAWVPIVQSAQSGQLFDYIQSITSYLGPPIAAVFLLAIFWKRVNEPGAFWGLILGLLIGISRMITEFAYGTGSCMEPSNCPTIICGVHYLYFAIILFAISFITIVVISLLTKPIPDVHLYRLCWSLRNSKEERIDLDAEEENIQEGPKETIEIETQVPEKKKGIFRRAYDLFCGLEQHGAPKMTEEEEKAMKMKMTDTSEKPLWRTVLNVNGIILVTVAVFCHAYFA
- PROCEDURE_DETAILS: SGLT1 activity measurement: 14C-AMG uptake in BHK cells transfected with SGLT1
- PARTICULARS: AMG 50 μM, 37° C., 90 min
pIC50: −log10 of the molar value.

> print(dat)
                                   molecule  readout.name  value.reported
1  COc1cc(C)c(-c2nc3ccc(F)cn3c2Nc2c(C)cccc2C)c(OCC(N)=O)c1OC         pIC50          < 5.00
2  COc1cc(C)c(-c2nc3ccc(F)cn3c2Nc2c(F)cc(Br)cc2F)c(OCC(N)=O)c1         pIC50    5.00 to 6.00
3  COc1cc(C)c(-c2nc3cccc(N)n3c2Nc2c(C)cccc2C)c(OCC(N)=O)c1         pIC50          < 5.00
4  CCc1cc(OC2CCCCO2)cc(OCC(N)=O)c1-c1nc2ccccn2c1Nc1c(C)cccc1C (stereo not drawn)         pIC50          < 5.00
5  COc1cc(C)c(-c2nc3c(N)cccn3c2Nc2c(C)cccc2C)c(OCC(N)=O)c1         pIC50          < 5.00
6  COc1cc(C)c(-c2nc3ccc(F)cn3c2Nc2ccc(F)cc2F)c(OCC(N)=O)c1         pIC50          < 5.00

State the recorded pIC50 for this entry: Cc1cccc2nc(-c3ccccc3OCC(N)=O)c(Nc3c(Cl)cccc3Cl)n12
5.00 to 6.00

Follow-up item: COc1cc(C)c(-c2nc3c(F)cc(F)cn3c2Nc2c(C)cccc2C)c(OCC(N)=O)c1
5.00 to 6.00

Param item: Cc1cccc(C)c1Nc1c(-c2c(OCC(N)=O)ccc3ccccc23)nc2ccccn12
5.00 to 6.00

Now this one: Cc1cccc(C)c1Nc1c(-c2ccccc2OCC(N)=O)nc2ccc(C#N)cn12
< 5.00

Now give it for CCOc1cc(CC)c(-c2nc3ccc(F)cn3c2Nc2c(C)cccc2C)c(OCC(N)=O)c1 too.
< 5.00

Then what about the molecule CCc1cc(OC)cc(OCC(N)=O)c1-c1nc2c(O)cccn2c1Nc1c(C)cccc1C ?
< 5.00

Let us now turn to COc1cc(C)c(-c2nc3ccc(F)cn3c2Nc2c(C)cccc2Cl)c(OCC(N)=O)c1
5.00 to 6.00

Also COc1cc(C)c(-c2nc3ccc(F)cn3c2Nc2c(C)cc(F)cc2C)c(OCC(N)=O)c1 , if possible.
5.00 to 6.00

And the next one, COc1cc(C)c(-c2nc3ccc(F)cn3c2Nc2c(Br)cc(F)cc2Br)c(OCC(N)=O)c1 ?
5.00 to 6.00
